- experimentalSystem: BRD9 (Homo sapiens)
- Construct: T7 phage strains displaying bromodomains were grown; host or cells: T7 phage in E. coli derived from BL21
- Sequence (Q9H8M2 136-240 limits assumed): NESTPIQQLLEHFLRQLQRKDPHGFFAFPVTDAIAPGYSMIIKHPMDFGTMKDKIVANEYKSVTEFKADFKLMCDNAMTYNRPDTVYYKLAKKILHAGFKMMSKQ
- assaySummary: BROMOscan Kd determination BRD9
- Assay type: binding
- recordedConditions: Table 3 compound 27
pKd: −log10 of the molar value.

[
  {
    "chemicalSmiles": "CCCCc1[nH]c(-c2cc(N)ccc2Cl)c2c1C(=O)CCCC2",
    "pKd": 6.10
  }
]

----------
- experimentalSystem: BRPF1 (Homo sapiens, UniProt P55201)
- Construct: T7 phage strains displaying bromodomains were grown; host or cells: T7 phage in E. coli derived from BL21
- Sequence (P55201 628-732 limits assumed): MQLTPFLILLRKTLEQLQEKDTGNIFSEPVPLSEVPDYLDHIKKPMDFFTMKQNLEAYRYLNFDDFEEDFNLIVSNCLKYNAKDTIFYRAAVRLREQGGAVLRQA
- assaySummary: BROMOscan Kd determination BRPF1
- Format: binding
pKd: −log10 of the molar value.
assayEndpoint: pKd

[
  {
    "chemicalSmiles": "COc1ccc(S(=O)(=O)N2CCN(C)CC2)cc1NC(=O)c1[nH]c(C)c2c1CCCCC2=O",
    "assayEndpoint": "pKd",
    "numericResult": 6.49
  },
  {
    "chemicalSmiles": "COc1ccc(S(=O)(=O)N2CCCCCC2)cc1NC(=O)c1[nH]c(C)c2c1CCCCC2=O",
    "assayEndpoint": "pKd",
    "numericResult": 5.60
  },
  {
    "chemicalSmiles": "COc1ccc(S(=O)(=O)N2CC3(COC3)C2)cc1NC(=O)c1[nH]c(C)c2c1CCCCC2=O",
    "assayEndpoint": "pKd",
    "numericResult": 5.89
  },
  {
    "chemicalSmiles": "COc1ccc(S(=O)(=O)N2CCOCC2)cc1NC(=O)c1[nH]c(C)c2c1CCCCC2=O",
    "assayEndpoint": "pKd",
    "numericResult": 6.28
  },
  {
    "chemicalSmiles": "Cc1[nH]c(-c2cc(N)ccc2Cl)c2c1C(=O)CCCC2",
    "assayEndpoint": "pKd",
    "numericResult": 6.89
  },
  {
    "chemicalSmiles": "CCCc1[nH]c(-c2cc(N)ccc2Cl)c2c1C(=O)CCCC2",
    "assayEndpoint": "pKd",
    "numericResult": 5.15
  },
  {
    "chemicalSmiles": "CCN(CC)S(=O)(=O)c1ccc(OC)c(NC(=O)c2[nH]c(C)c3c2CCCCC3=O)c1",
    "assayEndpoint": "pKd",
    "numericResult": 6.38
  },
  {
    "chemicalSmiles": "COc1ccc(S(=O)(=O)N2CCCCC2)cc1NC(=O)c1[nH]c(C)c2c1CCCCC2=O",
    "assayEndpoint": "pKd",
    "numericResult": 5.74
  }
]

----------
- experimentalSystem: BRD3(1) (Homo sapiens, UniProt Q15059)
- Construct: T7 phage strains displaying bromodomains were grown in parallel
- Sequence (Q15059 34-140 limits assumed): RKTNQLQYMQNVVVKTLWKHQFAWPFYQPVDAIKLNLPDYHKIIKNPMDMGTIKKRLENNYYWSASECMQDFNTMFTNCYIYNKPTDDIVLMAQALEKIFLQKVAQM
- assaySummary: BROMOscan Kd determination BRD3(1)
pKd: −log10 of the molar value.
assayEndpoint: pKd

[
  {
    "chemicalSmiles": "COc1ccc(S(=O)(=O)N2CCOCC2)cc1NC(=O)c1[nH]c(C)c2c1CCCCC2=O",
    "numericResult": 7.00
  },
  {
    "chemicalSmiles": "Cc1[nH]c(-c2cc(N)ccc2Cl)c2c1C(=O)CCCC2",
    "numericResult": 6.77
  }
]
